Recorded values, source patent US20080287375A1.

# assayed.system: O-GlcNAcase (Homo sapiens)
# Sequence (O60502 1-916): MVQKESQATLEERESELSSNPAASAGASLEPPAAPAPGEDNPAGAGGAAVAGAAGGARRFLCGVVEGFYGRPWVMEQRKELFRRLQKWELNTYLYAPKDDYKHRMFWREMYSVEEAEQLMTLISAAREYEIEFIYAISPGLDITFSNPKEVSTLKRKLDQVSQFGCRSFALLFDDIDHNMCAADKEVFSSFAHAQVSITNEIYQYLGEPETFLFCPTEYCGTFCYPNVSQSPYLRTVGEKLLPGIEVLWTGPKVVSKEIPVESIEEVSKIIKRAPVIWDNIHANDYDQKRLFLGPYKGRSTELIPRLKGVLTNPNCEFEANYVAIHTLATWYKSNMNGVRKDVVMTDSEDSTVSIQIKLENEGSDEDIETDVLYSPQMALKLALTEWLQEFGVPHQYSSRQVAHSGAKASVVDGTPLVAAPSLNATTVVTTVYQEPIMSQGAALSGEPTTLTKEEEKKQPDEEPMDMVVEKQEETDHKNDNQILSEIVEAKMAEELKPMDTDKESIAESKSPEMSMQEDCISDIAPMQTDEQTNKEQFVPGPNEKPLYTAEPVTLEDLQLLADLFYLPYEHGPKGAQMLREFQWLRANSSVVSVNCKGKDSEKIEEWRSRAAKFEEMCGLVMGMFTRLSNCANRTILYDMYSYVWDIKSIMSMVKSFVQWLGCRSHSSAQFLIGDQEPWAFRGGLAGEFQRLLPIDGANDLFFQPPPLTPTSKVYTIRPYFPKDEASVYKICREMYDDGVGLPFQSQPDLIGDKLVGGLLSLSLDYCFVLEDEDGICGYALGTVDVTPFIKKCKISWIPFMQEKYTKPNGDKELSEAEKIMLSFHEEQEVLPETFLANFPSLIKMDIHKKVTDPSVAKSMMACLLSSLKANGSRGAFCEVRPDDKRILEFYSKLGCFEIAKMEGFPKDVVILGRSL
# test.parameters: Table 2
value.type: Selectivity Ratio (β-Hex KI/O-GlcNAcase KI)

(A) CCCC1=N[C@@H]2[C@@H](O)[C@H](O)[C@@H](CO)O[C@@H]2S1
(B) CC(=O)N[C@H]1C(O)O[C@H](CO)[C@@H](O)[C@@H]1O (stereo partly shown) [GlcNAc, N-acetylglucosamine, reference compound]
Input: Which one would you say has the larger Selectivity Ratio (β-Hex KI/O-GlcNAcase KI) value: A , or B ? Identify your selection by its label.
Output: A
(A: 1500, B: 0.8)

(P) CC(C)C1=N[C@@H]2[C@@H](O)[C@H](O)[C@@H](CO)O[C@@H]2S1
(Q) CCCCCC1=N[C@@H]2[C@@H](O)[C@H](O)[C@@H](CO)O[C@@H]2S1
Input: Which one would you say has the larger Selectivity Ratio (β-Hex KI/O-GlcNAcase KI) value: P , or Q ? Identify your selection by its label.
Output: P
(P: 700, Q: 100)

(P) CCCCC1=N[C@@H]2[C@@H](O)[C@H](O)[C@@H](CO)O[C@@H]2S1
(Q) CCC1=N[C@@H]2[C@@H](O)[C@H](O)[C@@H](CO)O[C@@H]2S1
Input: Which one would you say has the larger Selectivity Ratio (β-Hex KI/O-GlcNAcase KI) value: P , or Q ? Identify your selection by its label.
Output: P
(P: 3100, Q: 270)

====

# assayed.system: UniProt O60502
# assay.text: biochemical
value.type: Ki (µM)

# molecule, value.type, endpoint.unit, experimental.value
measured = [
    ("CCCCCC1=N[C@@H]2[C@@H](O)[C@H](O)[C@@H](CO)O[C@@H]2S1", "Ki", "µM", 57),
    ("CCCCC1=N[C@@H]2[C@@H](O)[C@H](O)[C@@H](CO)O[C@@H]2S1", "Ki", "µM", 1.5),
]

(a) CC(C)C1=N[C@@H]2[C@@H](O)[C@H](O)[C@@H](CO)O[C@@H]2S1
(b) CC(=O)N[C@H]1C(O)O[C@H](CO)[C@@H](O)[C@@H]1O (stereo partly drawn) [GlcNAc, N-acetylglucosamine, reference compound]
(c) CCCC1=N[C@@H]2[C@@H](O)[C@H](O)[C@@H](CO)O[C@@H]2S1
(d) CCC1=N[C@@H]2[C@@H](O)[C@H](O)[C@@H](CO)O[C@@H]2S1
Input: Arrange these molecules by their Ki, starting with the largest number. // ordering of labels required in reply
Output: b, a, c, d

====

Consider the following selectivity ratio for O-GlcNAcase over β-hexosaminidase values measured on O-GlcNAcase (Homo sapiens).
value.type: selectivity ratio for O-GlcNAcase over β-hexosaminidase (fold)

(a) CCCCC1=N[C@@H]2[C@@H](O)[C@H](O)[C@@H](CO)O[C@@H]2S1 [Compound 9d]
(b) CCCC1=N[C@@H]2[C@@H](O)[C@H](O)[C@@H](CO)O[C@@H]2S1 [Compound 9c]
(c) CC(C)C1=N[C@@H]2[C@@H](O)[C@H](O)[C@@H](CO)O[C@@H]2S1 [Compound 9f]
Input: hey, can you rank those compounds up there by selectivity ratio for O-GlcNAcase over β-hexosaminidase? biggest number first please // ordering of labels required in reply
Output: a, b, c

====

# assayed.system: human placental β-hexosaminidase
# assay.text: Inhibition of β-hexosaminidase, substrate MU-GlcNAc (5), Dixon plots
# test.parameters: read-out: β-Hexosaminidase KI; Table 2; substrate 5 at 0.64 mM, pH 4.25, Dixon plots
value.type: Ki (µM)

(A) CCCC1=N[C@@H]2[C@@H](O)[C@H](O)[C@@H](CO)O[C@@H]2S1
(B) CCCCCC1=N[C@@H]2[C@@H](O)[C@H](O)[C@@H](CO)O[C@@H]2S1
Input: Which value of Ki is smaller, the one for A or the one for B ? Identify your selection by its label.
Output: A
(A: 340 µM, B: 11000 µM)

(I) CC(=O)N[C@H]1C(O)O[C@H](CO)[C@@H](O)[C@@H]1O (some centres unmarked) [GlcNAc, N-acetylglucosamine, reference compound]
(II) CCCCC1=N[C@@H]2[C@@H](O)[C@H](O)[C@@H](CO)O[C@@H]2S1
(III) CC(C)C1=N[C@@H]2[C@@H](O)[C@H](O)[C@@H](CO)O[C@@H]2S1
(IV) CC(=O)N[C@H]1/C(=N/OC(=O)Nc2ccccc2)O[C@H](CO)[C@@H](O)[C@@H]1O
Input: Could you please order the items by Ki, going from the lowest number to the highest? // ordering of labels required in reply
Output: IV, III, I, II

====

# assayed.system: human placental β-hexosaminidase
# assay.text: Inhibition of β-hexosaminidase, substrate MU-GlcNAc (5), Dixon plots
# test.parameters: read-out: KI, β-hexosaminidase; human lysosomal β-hexosaminidase
value.type: Ki (mM)

# compound, endpoint.unit, experimental.value
measured = [
    ("CN(N=O)C(=O)N[C@H]1C(O)O[C@H](CO)[C@@H](O)[C@@H]1O (mixture of isomers)", "mM", 47),
]

(a) CC(=O)N[C@H]1/C(=N/OC(=O)Nc2ccccc2)O[C@H](CO)[C@@H](O)[C@@H]1O
(b) CC(=O)N[C@H]1C(O)O[C@H](CO)[C@@H](O)[C@@H]1O (stereo partly drawn) [GlcNAc, N-acetylglucosamine, reference compound]
Input: Which value of Ki is smaller, the one for a or the one for b ? Identify your selection by its label.
Output: a

====

# assayed.system: human placental β-hexosaminidase
# assay.text: Inhibition of β-hexosaminidase, substrate pNP-GlcNAc, Dixon plots
# test.parameters: read-out: β-Hexosaminidase KI; Table 3; substrate pNP-GlcNAc 0.5 mM, pH 4.25
value.type: Ki (µM)

# compound, Ki (µM)
records = [
    ("CC(C)C(=O)N[C@H]1C(=NOC(=O)Nc2ccccc2)O[C@H](CO)[C@@H](O)[C@@H]1O [Compound 22e]", 20),
]

(I) CCC(=O)N[C@H]1C(=NOC(=O)Nc2ccccc2)O[C@H](CO)[C@@H](O)[C@@H]1O [Compound 22a]
(II) CCCCC(=O)NC1C(=NOC(=O)Nc2ccccc2)OC(CO)C(O)C1O (stereo not shown) [Compound 22c]
Input: Which one would you say has the larger Ki value: I , or II ? Identify your selection by its label.
Output: II
(II: 220 µM, I: 1.2 µM)

(I) CC(=O)N[C@H]1/C(=N/OC(=O)Nc2ccccc2)O[C@H](CO)[C@@H](O)[C@@H]1O [PUGNAc]
(II) CCCC(=O)N[C@H]1C(=NOC(=O)Nc2ccccc2)O[C@H](CO)[C@@H](O)[C@@H]1O [Compound 22b]
Input: Which one would you say has the larger Ki value: I , or II ? Identify your selection by its label.
Output: II

====

# assayed.system: O-GlcNAcase (Homo sapiens)
# Sequence (O60502 1-916): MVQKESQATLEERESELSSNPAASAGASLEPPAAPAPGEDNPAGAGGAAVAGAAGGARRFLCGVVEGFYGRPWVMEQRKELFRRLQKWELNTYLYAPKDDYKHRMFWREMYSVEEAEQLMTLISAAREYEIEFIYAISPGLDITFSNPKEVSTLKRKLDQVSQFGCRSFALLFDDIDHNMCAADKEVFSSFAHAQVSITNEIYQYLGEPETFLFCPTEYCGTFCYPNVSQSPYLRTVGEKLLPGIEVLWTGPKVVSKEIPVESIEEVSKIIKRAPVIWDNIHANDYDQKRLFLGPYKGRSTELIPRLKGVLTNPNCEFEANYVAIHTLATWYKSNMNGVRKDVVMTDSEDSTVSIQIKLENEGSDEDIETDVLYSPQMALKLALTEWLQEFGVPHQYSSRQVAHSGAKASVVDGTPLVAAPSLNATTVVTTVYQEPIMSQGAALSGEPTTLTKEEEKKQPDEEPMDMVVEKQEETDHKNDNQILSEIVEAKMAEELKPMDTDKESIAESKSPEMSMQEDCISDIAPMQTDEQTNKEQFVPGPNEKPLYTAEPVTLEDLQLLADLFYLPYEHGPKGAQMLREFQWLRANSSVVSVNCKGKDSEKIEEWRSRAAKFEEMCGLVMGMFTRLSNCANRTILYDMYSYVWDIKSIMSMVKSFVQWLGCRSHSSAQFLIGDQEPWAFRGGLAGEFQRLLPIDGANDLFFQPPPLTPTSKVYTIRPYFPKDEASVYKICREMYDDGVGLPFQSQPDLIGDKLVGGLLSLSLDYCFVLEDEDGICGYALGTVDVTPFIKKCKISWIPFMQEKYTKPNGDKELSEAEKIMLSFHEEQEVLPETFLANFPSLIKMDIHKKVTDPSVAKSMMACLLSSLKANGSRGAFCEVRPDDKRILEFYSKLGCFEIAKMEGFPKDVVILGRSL
# assay.text: Inhibition of O-GlcNAcase, substrate pNP-GlcNAc, Dixon plots
value.type: Ki (µM)

# molecule, experimental.value
records = [
    ("CCCCCC(=O)N[C@H]1C(=NOC(=O)Nc2ccccc2)O[C@H](CO)[C@@H](O)[C@@H]1O [Compound 22d]", 210),
]

(P) CCCC(=O)N[C@H]1C(=NOC(=O)Nc2ccccc2)O[C@H](CO)[C@@H](O)[C@@H]1O [Compound 22b]
(Q) CCCCC(=O)NC1C(=NOC(=O)Nc2ccccc2)OC(CO)C(O)C1O (stereo not drawn) [Compound 22c]
(R) CCC(=O)N[C@H]1C(=NOC(=O)Nc2ccccc2)O[C@H](CO)[C@@H](O)[C@@H]1O [Compound 22a]
(S) CC(C)C(=O)N[C@H]1C(=NOC(=O)Nc2ccccc2)O[C@H](CO)[C@@H](O)[C@@H]1O [Compound 22e]
(T) CC(C)CC(=O)N[C@H]1C(=NOC(=O)Nc2ccccc2)O[C@H](CO)[C@@H](O)[C@@H]1O [Compound 22f]
Input: Arrange these molecules by their Ki, starting with the largest number. // ordering of labels required in reply
Output: T, Q, S, P, R
(T: 190 µM, Q: 40 µM, S: 9 µM, P: 2.4 µM, R: 1.2 µM)
